Hey, just so you know, these numbers are from PubChem BioAssay AID651820.

assay: qHTS Assay for Inhibitors of Hepatitis C Virus (HCV); details: Huh7.5.1 HCVcc-Cre infection, luciferase reporter, 44 h; series mostly up to 41.8 µM; note: potency is the fitted concentration of half-maximal effect
Out of some 340,000 compounds screened, about 12,000 (3.5%) were called active. Roughly 18% stayed inconclusive and do not appear here. This is one part of a sample in which actives are shown more often than they occur.

[
  {
    "compound": "CC(=O)c1cccc(CN2CCC(CO)(Cc3ccccc3)CC2)c1",
    "Potency": "inactive"
  },
  {
    "compound": "Cc1ccc(-n2ncc3c(=O)n(-c4ccc(C)c(C)c4)c(-c4ccco4)nc32)cc1",
    "Potency": "3.98 µM (active)"
  },
  {
    "compound": "CCc1cc2c(NC3CCCC3)ncnc2s1",
    "Potency": "10 µM (active)"
  },
  {
    "compound": "CC(Nc1nc(N2CCN(CCO)CC2)nc2ccccc12)c1ccccc1 (stereo unspecified)",
    "Potency": "inactive"
  },
  {
    "compound": "CC[C@@]1(C(=O)OC)N[C@H](CN(C)C(C)=O)[C@@H]2C(=O)N(C)C(=O)[C@@H]21",
    "Potency": "inactive"
  },
  {
    "compound": "CCc1noc(C)c1C(=O)N1CCCC(N2CCN(c3ccc(F)cc3)CC2)C1 (stereo unspecified)",
    "Potency": "inactive"
  }
]

====

assay: qHTS Assay for Inhibitors of Hepatitis C Virus (HCV); conditions: Huh7.5.1 HCVcc-Cre infection, luciferase reporter, 44 h; series mostly up to 41.8 µM
Screen size: about 340,000 compounds; about 12,000 (3.5%) were called active. About 18% were inconclusive and are not listed. Calls come from the whole dose curve; as a rule, active = well fitted inhibition curve with a large enough effect; inconclusive = small, poorly fitted or top-dose-only effect, or another doubt; inactive = no such curve, though single readings can be large or run the other way. Many of the other results were omitted from the sample, so actives are more common in it than they were.
Outcome codes: active, inactive

[
  {
    "compound": "Cc1cccc(-n2c(=O)c3c(C)c(C)sc3n(CC(N)=O)c2=O)c1",
    "label-class": "inactive"
  },
  {
    "compound": "CCC(=O)Nc1ccc(C(=O)N2CCN(C(=O)c3ccco3)CC2)cc1",
    "label-class": "inactive"
  },
  {
    "compound": "Cc1ccc(C)c(OCC(=O)N2CCN(C(=O)c3ccco3)CC2)c1",
    "label-class": "inactive"
  },
  {
    "compound": "COc1cccc(N2CCN(C(=O)C3CCCN(S(=O)(=O)c4cnc[nH]4)C3)CC2)c1 (stereo not given)",
    "label-class": "inactive"
  },
  {
    "compound": "O=C(NCc1ccncc1)C1CCCN(S(=O)(=O)c2ccc(Br)cc2)C1 (stereo not given)",
    "label-class": "inactive"
  },
  {
    "compound": "CCCc1cc(=O)[nH]c2nnc(SCC(=O)Nc3nnc(SCC)s3)n12",
    "label-class": "inactive"
  },
  {
    "compound": "O=C(C1CCCN(S(=O)(=O)c2ccccc2)C1)N1CCN(c2ccc(F)cc2)CC1 (stereo not given)",
    "label-class": "active"
  },
  {
    "compound": "CCCS(=O)(=O)N1CCCC(C(=O)N2CCN(c3ccccc3)CC2)C1 (stereo not given)",
    "label-class": "inactive"
  },
  {
    "compound": "O=C(COC(=O)CNS(=O)(=O)c1ccc(F)c(F)c1F)NC1CCCC1",
    "label-class": "inactive"
  },
  {
    "compound": "CCS(=O)(=O)N1CCCC(C(=O)NCc2ccc(C)cc2)C1 (stereo not given)",
    "label-class": "inactive"
  }
]
